Form field: pKi (one value per entry).
STUDY_SYSTEM: Delta-type opioid receptor (Rattus norvegicus, UniProt P33533)
Sequence (P33533 whole entry): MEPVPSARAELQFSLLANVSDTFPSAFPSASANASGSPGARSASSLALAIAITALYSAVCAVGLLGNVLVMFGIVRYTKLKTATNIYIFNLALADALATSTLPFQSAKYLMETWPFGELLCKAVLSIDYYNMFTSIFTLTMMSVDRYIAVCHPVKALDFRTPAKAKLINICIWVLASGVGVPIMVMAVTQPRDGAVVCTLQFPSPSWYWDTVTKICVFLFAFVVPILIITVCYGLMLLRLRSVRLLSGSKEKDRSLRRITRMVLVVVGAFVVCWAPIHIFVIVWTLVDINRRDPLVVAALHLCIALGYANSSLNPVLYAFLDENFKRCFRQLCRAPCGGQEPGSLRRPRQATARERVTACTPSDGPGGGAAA
EXPERIMENTAL_PROTOCOL: Displacement of [3H]DSLET from rat brain membrane opioid receptor delta
Just the number, please; pKi means minus log10 of the concentration in mol/L.

// worked examples, pKi included
1. NC(=O)[C@@H]1CCC(=O)NCCC[C@@H](NC(=O)[C@@H](N)Cc2ccc(O)cc2)C(=O)N[C@@H](Cc2ccc3ccccc3c2)C(=O)N1; 7.29
2. NC(=O)[C@@H]1CCC(=O)NCCC[C@@H](NC(=O)[C@@H](N)Cc2ccc(O)cc2)C(=O)N2Cc3ccccc3C[C@H]2C(=O)N1; 4.30
3. NC(=O)[C@@H]1CCC(=O)NCCC[C@@H](NC(=O)[C@@H](N)Cc2ccc(O)cc2)C(=O)N[C@@H](CCc2ccccc2)C(=O)N1; 7.81
4. NC(=O)[C@@H]1CCC(=O)NCCC[C@@H](NC(=O)[C@@H](N)Cc2ccc(O)cc2)C(=O)N[C@@H](Cc2ccccc2)C(=O)N1; 8.49
5. Cc1ccccc1C[C@@H]1NC(=O)[C@H](NC(=O)[C@@H](N)Cc2ccc(O)cc2)CCCNC(=O)CC[C@@H](C(N)=O)NC1=O; 8.04

Let's switch to this compound now.
Tell us which pKi value is on record for `C[C@]1(Cc2ccccc2)NC(=O)[C@H](NC(=O)[C@@H](N)Cc2ccc(O)cc2)CCCNC(=O)CC[C@@H](C(N)=O)NC1=O`
7.26
